Tested on: H9c2;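 also: cell death induced by hydrogen peroxide oxidative stress; compound pretreatment for 60 min then peroxide exposure for 2 h; potency is for protecting the cells against peroxide damage rather than for killing them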;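 also: confirmatory concentration-response retest of ultra-high-throughput screening hits for modulation of myocardial damage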
measurement protocol: cells
Format: functional, cell-based
details: Rattus norvegicus, H9c2, Myocardium
Activity calls are given as the source filed them. Rule as the data show it: active = IC50 of 30 µM or less and inactive = more.
Field 'call' accepts active, inactive

Per the assay record, what outcome was assigned to COc1ccc(C(=O)COC(=O)C(CCCCN2C(=O)C3C4C=CC(C4)C3C2=O)N2C(=O)C3C4C=CC(C4)C3C2=O)cc1 (centres undefined) ?
inactive

Try the compound O=C(Nc1nnc(C2CC2)s1)c1cc(-c2ccccc2)nn1-c1ccccc1
active

Continue with CCCN(CC(=O)Nc1ccc(F)c(F)c1F)C(=O)CCc1nc(O)c2ccccc2n1
active

Now for a further compound.
For COC(=O)/C(=C(O)\C=C\c1ccccc1[N+](=O)[O-])c1nc2ccccc2[nH]1 , what call appears in the results of this test?
inactive
